Where do the numbers come from? From patent US20210330611A1.

Catalogue of compounds with associated LPS % cell toxicity
- System: primary rat microglia
- Assay name: Cell toxicity (dead cells, size <150 μm2) in LPS assay
- Study conditions: primary microglia HTS, LPS stimulation; decreased size (<150 μm^2) as marker of toxicity
Where a SMILES comes first, the peptide text is derived from it. Bridges are numbered along the chain shown (N, C = ends). [ ]: non-standard residue; d: D form. The star is where a group is joined. Ileψ(thiazoline)Cys = CC[C@H](C)[C@H](N)C1=N[C@H](C(=O)*)CS1; dOrn = NCCC[C@@H](N)C(=O)O
State the answer as a number, implicitly in %.

See these solved cases before continuing.
Compound	Obs value
Nc1c2ccccc2nc2ccccc12 [Aminacrine]	67
Cc1cc(=O)[nH]c(=S)[nH]1 [Methylthiouracil]	0
CC[C@H](C)[C@H](N)C1=N[C@H](C(=O)N[C@@H](CC(C)C)C(=O)N[C@H](CCC(=O)O)C(=O)N[C@H](C(=O)N[C@H]2CCCCNC(=O)[C@H](CC(N)=O)NC(=O)[C@@H](CC(=O)O)NC(=O)[C@H](Cc3cnc[nH]3)NC(=O)[C@@H](Cc3ccccc3)NC(=O)[C@H]([C@@H](C)CC)NC(=O)[C@@H](CCCN)NC2=O)[C@@H](C)CC)CS1 [Bacitracin, reference compound] ({Ileψ(thiazoline)Cys}-L[dE]IK[dOrn]I[dF]H[dD]N; lactam 4-C)	0
COc1ccc(Cc2nccc3cc(OC)c(OC)cc23)cc1OC [Papaverine]	0

(Q) Quick one: LPS % cell toxicity for C[C@]12CCC(=O)C=C1CC[C@@H]1[C@@H]2CC[C@@]2(C)[C@H]1CC[C@]2(C)O [Methyltestosterone] ?
(A) 0

(Q) For the compound shown here, CC1COc2c(N3CCN(C)CC3)c(F)cc3c(=O)c(C(=O)O)cn1c23 (stereo not drawn) [Ofloxacin] , give the reported LPS % cell toxicity.
(A) 0
